test-method-notes: Solubility testing for clemizole HCl in solvent systems (Example 1)
Format: physicochemical
study-conditions: citrate buffer, pH 4.5, aqueous with cosolvent or surfactant or cyclodextrin, pH 4.5 Citrate Buffer 94.5 / Polysorbate 80 5.0 / Sodium ascorbate 0.5 % w/w; read-out: Actual Solubility
Structures can show the parent of a compound that is named as a salt.
readout-label: solubility (mg/mL)

[[record]]
compound = "Clc1ccc(Cn2c(CN3CCCC3)nc3ccccc32)cc1 [clemizole HCl]"
unit_of_measure = "mg/mL"
reported = 24.6

